# STUDY_SYSTEM: human D2 receptor (Homo sapiens)
# Construct: expressed in transfected cells
# ASSAY_NOTES: [3H]spiperone binding assay, dopamine D2-receptor affinity (HEK293 cells stably expressing D2 receptors)
VALUE_KIND: Ki (µM)
Answers are plain numbers, in µM.

Study these solved cases before continuing.
COMPOUND	Ki / µM
C=CCN1CCCC1CNC(=O)c1cc(CCCS[C@H]2CC(=O)N(c3ccc([Si](F)(C(C)(C)C)C(C)(C)C)cc3)C2=O)cc(OC)c1OC (stereo partly shown)	0.00421
C=CCN1CCC[C@H]1CNC(=O)c1cc([Si](F)(C(C)(C)C)C(C)(C)C)cc(OC)c1OC	0.033
C=CCN1CCC[C@H]1CNC(=O)c1cc([Si](F)(C(C)(C)C)C(C)(C)C)ccc1OC	0.0136

Shift focus to the following entry.
q: Give the reported value of Ki for this record: C=CCN1CCC[C@H]1CNC(=O)c1ccc([Si](F)(C(C)(C)C)C(C)(C)C)cc1
a: 0.0627

* * *

# STUDY_SYSTEM: human D2 receptor (Homo sapiens, UniProt P14416)
# Construct: expressed in transfected cells
# Sequence (P14416 whole entry): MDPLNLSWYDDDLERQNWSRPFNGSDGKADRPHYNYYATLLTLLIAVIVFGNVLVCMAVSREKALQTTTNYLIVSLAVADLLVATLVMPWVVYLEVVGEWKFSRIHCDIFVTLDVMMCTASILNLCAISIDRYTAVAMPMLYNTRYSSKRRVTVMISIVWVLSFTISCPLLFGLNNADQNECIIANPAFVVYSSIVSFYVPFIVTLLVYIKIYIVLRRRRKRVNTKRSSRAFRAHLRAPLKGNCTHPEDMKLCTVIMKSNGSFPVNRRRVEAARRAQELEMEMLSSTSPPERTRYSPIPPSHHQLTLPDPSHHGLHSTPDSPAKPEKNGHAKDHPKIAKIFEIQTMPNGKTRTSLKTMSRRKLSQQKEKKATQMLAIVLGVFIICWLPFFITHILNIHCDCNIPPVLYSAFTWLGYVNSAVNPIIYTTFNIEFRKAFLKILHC
# ASSAY_NOTES: [3H]spiperone binding assay, dopamine D2-receptor affinity (HEK293 cells stably expressing D2 receptors)
# SETUP_CONDITIONS: D2-receptor affinity; [3H]spiperone competition, 3 independent experiments; Ki from IC50 by Cheng-Prusoff; read-out: Ki (nM ± SEM)
VALUE_KIND: Ki

q: Given the molecule C=CCN1CCC[C@H]1CNC(=O)c1cc(CCCF)cc(OC)c1OC [Fallypride, fallypride, reference compound] , write its reported Ki.
a: 0.0965 nM
